- target system: Hexose transporter 1 (Plasmodium falciparum) (UniProt O97467)
- experiment: ST_JUDE_LEISH: Cytotoxicity at 2uM final concentration against transgenic Leishmania Mexicana promastigotes LmPfHT that are glucose transport deficient and complemented with the Plasmodium falciparum hexose transporter. Activity is measured by DNA content using SYBR green in vitro
- Assay type: functional
readout name: inhibition (%)
State just the number; it will be interpreted in %.

Need inhibition, item "CCNC[C@H]1CCCN1CCOc1ccc(-n2cnc3cc(-c4ccc(Cl)cc4)sc3c2=O)cc1OC"
-1.99

Need inhibition, item CCCCCCCCCC(=O)NCC1CC(Br)=NO1 (stereo unspecified)
-0.61

Need inhibition, item "O=[N+]([O-])c1ccccc1/C=N/Nc1ccnc2ccc(C(F)(F)F)cc12"
2.42

Need inhibition, item CCc1c(CCNCCCCCCNC(C)Cc2ccc3c(c2CC)OCO3)ccc(OC)c1OC (stereo unspecified)
3.47

Need inhibition, item "CCCCCCCN(Cc1ccc(OC(C)(C)C(=O)OCC)cc1)C(=O)Nc1ccccc1OCC"
-1.76

Need inhibition, item "CCCCCCCCNCc1c(O)ccc2ccccc12"
3.25

====

- target system: Solute carrier family 2, facilitated glucose transporter member 1 (Homo sapiens)
- experiment: ST_JUDE_LEISH: Cytotoxicity at 2uM final concentration against transgenic Leishmania Mexicana promastigotes LmGLUT1 that are glucose transport deficient and complemented with the human glucose transporter GLUT1. Activity is measured by DNA content using SYBR green in vitro
- Type: functional
readout name: inhibition (%)
State just the number; it will be interpreted in %.

Need inhibition, item CC(CN(C)C)C(=O)Nc1cccc(-c2ccc(-c3nc4ccccc4[nH]3)cc2)c1 (centres undefined)
12.2

Need inhibition, item OC(CN1CCN(c2cccc(Cl)c2)CC1)C(c1ccccc1)c1ccccc1 (centres undefined)
-1.02

Need inhibition, item "O=S(=O)(NCCN1CCCC1)c1ccc(-c2ccc(CNCc3ccc(F)cc3)cc2)cc1"
7.2

Need inhibition, item O=C(Nc1cccc(C(F)(F)F)c1)N1CCOC(CCN2CCC(c3ccccc3)CC2)(c2ccc(Cl)c(Cl)c2)C1 (centres undefined)
1.69

Need inhibition, item "CCN1CCC(N(Cc2ccc(-c3ccc(C(F)(F)F)cc3)o2)C(=O)Cn2c(CCc3cccc(F)c3F)nc(=O)c3ccccc32)CC1"
11.3

Need inhibition, item "Cc1cc(NCCc2ccccc2)nc(NC(=N)Nc2cccc(Cl)c2)n1"
-0.54

Need inhibition, item "CCCS(=O)(=O)c1nc(S(=O)(=O)c2ccc(Cl)cc2)c(N2CCCCC2)s1"
0.14

Need inhibition, item "CC(=O)N(C)c1cccc(C(=O)Nc2ccc(-c3cccc(-c4nc5cccc(C)c5[nH]4)c3)cc2)c1"
2.19

Need inhibition, item C=CCOC(=O)N1CCC(CNCc2ccc(-c3ccc(-c4nc5ccccc5[nH]4)s3)cc2)C1 (centres undefined)
5.91

====

Field: inhibition. Provide a value for each of the compounds that follow.
- target system: Glucose transporter (Leishmania mexicana) (UniProt O61059)
- experiment: ST_JUDE_LEISH: Cytotoxicity at 2uM final concentration against transgenic Leishmania Mexicana promastigotes LmGT2 that are glucose transport deficient and complemented with the L. Mexicana glucose transporter 2. Activity is measured by DNA content using SYBR green in vitro
- Assay type: functional
State just the number; it will be interpreted in %.

Need inhibition, item "Cc1cccc2nc(-c3cccc(-c4cccc(NC(=O)Nc5cccc(C#N)c5)c4)c3)[nH]c12"
10.3

Need inhibition, item "C[C@H](NC(=O)c1cc(-c2ccc(C(C)(C)C)cc2)no1)C(=O)O.C[C@H](NC(=O)c1conc1-c1ccc(C(C)(C)C)cc1)C(=O)O"
1.58

Need inhibition, item "O=C(NC1CCN(Cc2ccsc2)CC1)c1ccc(-c2cccc(C(F)(F)F)c2)s1"
0.59

Need inhibition, item "Cc1cccc(CNc2nc(C)cc(N[C@@H](Cc3ccccc3)C(=O)NCc3cccc(F)c3)n2)c1"
2.83
